target: JAK1 (Homo sapiens (Human)); assay: Analysis of JAK1 activity inhibition ability (ADP-Glo Kinase Assay); format: biochemical
readout name: IC50

## Input Request the reported IC50 associated with O=C1CCN(C(=O)Cc2ccc(-c3cc(NC(=O)C4CC4)nc4[nH]ccc34)cc2)CC1
## Output 0.02 to 0.2 µM

###

target: JAK1 (Homo sapiens (Human), UniProt P23458); assay: Analysis of JAK1 activity inhibition ability (ADP-Glo Kinase Assay); format: biochemical; settings: JAK1 enzyme, ADP-Glo luminescence, ATP 250 uM, IRS-itide substrate, 30° C. 40 minutes; read-out: IC50
Sequence (P23458 whole entry): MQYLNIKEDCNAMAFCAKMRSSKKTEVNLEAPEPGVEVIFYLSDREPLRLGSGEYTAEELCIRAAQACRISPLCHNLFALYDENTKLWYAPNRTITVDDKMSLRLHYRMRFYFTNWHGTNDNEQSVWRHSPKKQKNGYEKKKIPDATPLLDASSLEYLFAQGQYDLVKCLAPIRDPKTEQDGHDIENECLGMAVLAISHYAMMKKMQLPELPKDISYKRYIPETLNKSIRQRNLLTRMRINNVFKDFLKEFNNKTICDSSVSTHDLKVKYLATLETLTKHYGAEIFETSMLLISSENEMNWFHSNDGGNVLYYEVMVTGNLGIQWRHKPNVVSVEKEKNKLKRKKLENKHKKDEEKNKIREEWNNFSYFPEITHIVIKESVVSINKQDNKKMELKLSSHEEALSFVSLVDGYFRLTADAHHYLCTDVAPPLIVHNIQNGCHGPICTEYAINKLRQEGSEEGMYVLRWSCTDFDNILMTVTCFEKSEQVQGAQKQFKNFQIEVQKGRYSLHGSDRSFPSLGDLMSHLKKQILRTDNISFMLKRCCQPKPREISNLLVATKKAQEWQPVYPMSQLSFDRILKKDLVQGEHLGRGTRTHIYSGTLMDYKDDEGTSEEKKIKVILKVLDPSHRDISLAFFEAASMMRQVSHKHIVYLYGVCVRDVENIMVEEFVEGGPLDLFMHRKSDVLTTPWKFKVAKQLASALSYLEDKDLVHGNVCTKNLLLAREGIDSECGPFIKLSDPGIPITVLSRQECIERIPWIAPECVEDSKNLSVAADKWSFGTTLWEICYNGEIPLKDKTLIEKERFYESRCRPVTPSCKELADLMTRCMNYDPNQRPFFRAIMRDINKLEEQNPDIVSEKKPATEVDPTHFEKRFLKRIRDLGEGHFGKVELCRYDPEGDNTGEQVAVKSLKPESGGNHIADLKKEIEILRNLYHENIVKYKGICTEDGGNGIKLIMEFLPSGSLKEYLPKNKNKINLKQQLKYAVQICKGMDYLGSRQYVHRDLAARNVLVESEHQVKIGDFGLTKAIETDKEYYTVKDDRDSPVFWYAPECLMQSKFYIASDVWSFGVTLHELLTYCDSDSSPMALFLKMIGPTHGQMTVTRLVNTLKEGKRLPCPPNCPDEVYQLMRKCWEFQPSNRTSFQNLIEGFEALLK
readout name: IC50

The following compounds have reported results that may help.
C[C@@H]1CN(C(=O)CC2(C#N)CC2)CC=C1c1cc(NC(=O)C2CC2)nc2[nH]ccc12    < 0.02 µM
CC(C)S(=O)(=O)N1CC(CC#N)(N2CC=C(c3cc(NC(=O)C4CC4)nc4[nH]ccc34)CC2)C1    < 0.02 µM
CC1CN(S(=O)(=O)Nc2ccc(-c3nc(NC(=O)C4CC4)nc4[nH]ccc34)cc2)CC(C)O1 (centres unmarked)    > 0.2 µM
C=CCS(=O)(=O)NC1CC=C(c2cc(NC(=O)C3CC3)nc3[nH]ccc23)CC1 (centres unmarked)    < 0.02 µM
N#CC1(C(=O)N2CC=C(c3cc(NC(=O)C4CC4)nc4[nH]ccc34)C2)CC1    > 0.2 µM
CCS(=O)(=O)Nc1ccc(-c2cc(NC(=O)C3CC3)nc3[nH]ccc23)c(C)c1F    0.02 to 0.2 µM
N#CCC(=O)Nc1ccc(-c2cc(NC(=O)C3CC3)nc3[nH]ccc23)cc1    0.02 to 0.2 µM

Please examine the following record next.
## Input Request the reported IC50 associated with O=C(Nc1cc(-c2ccc(NS(=O)(=O)CC3CC3)cc2)c2cc[nH]c2n1)C1CC1
## Output < 0.02 µM

###

Target: JAK1 (Homo sapiens (Human), UniProt P23458)
Test: Analysis of JAK1 activity inhibition ability (ADP-Glo Kinase Assay)
Format: biochemical
Details: JAK1 enzyme, ADP-Glo luminescence, ATP 250 uM, IRS-itide substrate, 30° C. 40 minutes; read-out: IC50
Procedure: Test Example 1: Analysis of JAK1 Activity Inhibition Ability of Compound of Formula 1 (ADP-Glo™ Kinase Assay) A JAK inhibition ability of a compound according to the present invention was identified as follows. A control material and a test material were prepared for each concentration, in such a way that they were diluted by means of DMSO. […]
Each entry below lists one item and its recorded IC50 value.

The following molecules have reported results that may help.
CC1CN(C(=O)c2ccc(-c3ccc(F)cc3)[nH]c2=O)CC=C1c1cc(NC(=O)C2CC2)nc2[nH]ccc12 (centres unmarked) [Example 322]    > 200 nM
CCNC(=S)N1CC=C(c2cc(NC(=O)C3CC3)nc3[nH]ccc23)CC1 [Example 468]    20 to 200 nM
O=C(Nc1cc(-c2ccc(NS(=O)(=O)CC3CCOCC3)c(F)c2)c2cc[nH]c2n1)C1CC1 [Example 73]    < 20 nM
CC1CN(C(=O)c2ccc(Cl)cc2)CC=C1c1cc(NC(=O)C2CC2)nc2[nH]ccc12 (centres unmarked) [Example 333]    20 to 200 nM
CCC(=O)NC1CC=C(c2cc(NC(=O)C3CC3)nc3[nH]ccc23)CC1 (centres unmarked) [Example 242]    > 200 nM

## Input Please tell me: IC50 of O=C(Nc1cc(-c2ccc(NS(=O)(=O)CC3CCCCC3)c(F)c2)c2cc[nH]c2n1)C1CC1 [Example 70] , system JAK1 (Homo sapiens (Human), UniProt P23458)?
## Output 20 to 200 nM

## Input Same question, N#CCCC(=O)N1CC=C(c2cc(NC(=O)C3CC3)nc3[nH]ccc23)C2(CC2)C1 [Example 302] this time
## Output 20 to 200 nM

## Input Same question, CCCCS(=O)(=O)Nc1ccc(-c2cc(NC(=O)C3CC3)nc3[nH]ccc23)c(CC)c1 [Example 116] this time
## Output 20 to 200 nM

###

Biological target: JAK1 (Homo sapiens (Human), UniProt P23458)
Assay: Analysis of JAK1 activity inhibition ability (ADP-Glo Kinase Assay)
Type: biochemical
Conditions: JAK1 enzyme, ADP-Glo luminescence, ATP 250 uM, IRS-itide substrate, 30° C. 40 minutes; read-out: IC50
Description: Test Example 1: Analysis of JAK1 Activity Inhibition Ability of Compound of Formula 1 (ADP-Glo™ Kinase Assay) A JAK inhibition ability of a compound according to the present invention was identified as follows. A control material and a test material were prepared for each concentration, in such a way that they were diluted by means of DMSO. […]
readout name: IC50

The following molecules have reported results that may help.
O=C(Nc1cc(-c2ccc(NC3CCN(C(=O)c4ccnc(F)c4)CC3)cc2)c2cc[nH]c2n1)C1CC1 [Example 509]    > 200 nM
O=C(Nc1nc(-c2ccc(NCc3ccc(Cl)cc3)cc2)c2cc[nH]c2n1)C1CC1 [Example 475]    < 20 nM
CS(=O)(=O)N1CCN(S(=O)(=O)Nc2ccc(-c3cc(NC(=O)C4CC4)nc4[nH]ccc34)cc2)CC1 [Example 230]    < 20 nM

Please examine the following record next.
## Input Request the reported IC50 associated with N#CCC(=O)N1CC=C(c2cc(NC(=O)C3CC3)nc3[nH]ccc23)CC1C(F)(F)F (stereo not shown) [Example 393]
## Output < 20 nM

###

Each entry below lists one item and its recorded IC50 value.
biological target: JAK1 (Homo sapiens (Human), UniProt P23458); test: Analysis of JAK1 activity inhibition ability (ADP-Glo Kinase Assay); type: biochemical; conditions: JAK1 enzyme, ADP-Glo luminescence, ATP 250 uM, IRS-itide substrate, 30° C. 40 minutes; read-out: IC50

## Input Request the reported IC50 associated with O=C(Nc1cc(-c2cnn(C3CCN(S(=O)(=O)C(F)(F)F)CC3)c2)c2cc[nH]c2n1)C1CC1 [Example 609]
## Output 0.02 to 0.2 µM

## Input Same question, COc1ccc(CC(=O)N2CC=C(c3cc(NC(=O)C4CC4)nc4[nH]ccc34)C(C)C2)cc1 (centres unmarked) [Example 341] this time
## Output > 0.2 µM

## Input Same question, N#CCCCS(=O)(=O)N1CC=C(c2cc(NC(=O)C3CC3)nc3[nH]ccc23)CC1 [Example 170] this time
## Output 0.02 to 0.2 µM

## Input Same question, CCS(=O)(=O)Nc1ccc(-c2cc(NC(=O)C3CC3)nc3[nH]ccc23)c(C)c1C [Example 131] this time
## Output 0.02 to 0.2 µM

## Input Same question, N#CCC(=O)N1C2CCC1CN(c1nc(Nc3ccccc3)nc3[nH]ccc13)C2 [Example 721] this time
## Output 0.02 to 0.2 µM

###

Target: JAK1 (Homo sapiens (Human), UniProt P23458)
Experiment: Analysis of JAK1 activity inhibition ability (ADP-Glo Kinase Assay)
Type: biochemical
Conditions: JAK1 enzyme, ADP-Glo luminescence, ATP 250 uM, IRS-itide substrate, 30° C. 40 minutes; read-out: IC50
Protocol: Test Example 1: Analysis of JAK1 Activity Inhibition Ability of Compound of Formula 1 (ADP-Glo™ Kinase Assay) A JAK inhibition ability of a compound according to the present invention was identified as follows. A control material and a test material were prepared for each concentration, in such a way that they were diluted by means of DMSO. […]
Each entry below lists one item and its recorded IC50 value.

## Input Request the reported IC50 associated with N#CCNC(=O)N1CC=C(c2cc(NC(=O)C3CC3)nc3[nH]ccc23)CC1
## Output 0.02 to 0.2 µM

## Input Same question, CCc1cc(NS(=O)(=O)CC)ccc1-c1cc(NC(=O)C2CC2)nc2[nH]ccc12 this time
## Output < 0.02 µM

## Input Same question, N#CCC(=O)N1CC=C(c2cc(NC(=O)C3CC3)nc3[nH]ccc23)CC12CCC2 this time
## Output < 0.02 µM

## Input Same question, O=C(Nc1cc(-c2ccc(NS(=O)(=O)c3cccc(F)c3)cc2C(F)(F)F)c2cc[nH]c2n1)C1CC1 this time
## Output 0.02 to 0.2 µM

###

target: JAK1 (Homo sapiens (Human), UniProt P23458); experiment: Analysis of JAK1 activity inhibition ability (ADP-Glo Kinase Assay); type: biochemical; conditions: JAK1 enzyme, ADP-Glo luminescence, ATP 250 uM, IRS-itide substrate, 30° C. 40 minutes; read-out: IC50
readout name: IC50

The following compounds have reported results that may help.
N#CCC(=O)NC1CC=C(c2cc(NC(=O)C3CC3)nc3[nH]ccc23)CC1 (centres unmarked) [Example 247]    20 to 200 nM
N#CCC1(CS(=O)(=O)Nc2c(F)cc(-c3cc(NC(=O)C4CC4)nc4[nH]ccc34)cc2F)CC1 [Example 108]    < 20 nM
O=C(Nc1cc(C2=CCC(NS(=O)(=O)CC3CC3)CC2)c2cc[nH]c2n1)C1CC1 (centres unmarked) [Example 161]    < 20 nM
N#CC1(CS(=O)(=O)Nc2ccc(-c3cc(NC(=O)C4CC4)nc4[nH]ccc34)cc2F)CC1 [Example 85]    < 20 nM
O=C(Nc1cc(-c2ccc(CN3CCS(=O)(=O)CC3)cc2)c2cc[nH]c2n1)C1CC1 [Example 584]    < 20 nM
O=C(Nc1cc(-c2ccc(CN3CCS(=O)(=O)CC3)cc2)c2cc[nH]c2n1)NC1CC1 [Example 717]    20 to 200 nM
CCC1CC(c2cc(NC(=O)C3CC3)nc3[nH]ccc23)=CCN1C(=O)CC#N (stereo in doubt) [Example 417]    < 20 nM

Please examine the following record next.
## Input Request the reported IC50 associated with O=C(Nc1cc(C2CC3CCC(C2)N3S(=O)(=O)c2ccc(F)c(F)c2)c2cc[nH]c2n1)C1CC1 (centres unmarked) [Example 649]
## Output > 200 nM
